Target Or System: RAC-alpha serine/threonine-protein kinase (Homo sapiens)
Test Details: Inhibition of recombinant human full length His-tagged AKT1 expressed in baculovirus expression system at 500 nM by Z-LYTE assay relative to control
Reported Property: inhibition (%)

Past entries and their recorded results:
[[record]]
compound_string = "CCC(=O)Nc1ccc(-c2c[nH]c3ncnc(N[C@H](C)c4ccccc4)c23)cc1"
readout_value = -4

[[record]]
compound_string = "OCc1ccc(-c2cc3c(N[C@H](CO)c4ccccc4)ncnc3[nH]2)cc1"
readout_value = -4


A: OC[C@@H](Nc1ncnc2sc(-c3ccc(O)cc3)cc12)c1ccccc1
B: CN(C)CCn1cc(-c2cccc(O)c2)c2c(N)ncnc21
Hi there, can you help? I need to know whether A or B has lower measured inhibition. // respond with label for picked entry
A

###

Target Or System: Inhibitor of nuclear factor kappa-B kinase subunit beta (Homo sapiens)
Test Details: Inhibition of recombinant full-length human GST-tagged IKKbeta expressed in baculovirus expression system at 500 nM by Z-LYTE assay relative to control
Reported Property: inhibition (%)

Past entries and their recorded results:
[[record]]
compound_string = "OCc1ccc(-c2cc3c(N[C@H](CO)c4ccccc4)ncnc3[nH]2)cc1"
reported_property = "inhibition"
display_unit = "%"
readout_value = 11

[[record]]
compound_string = "CCC(=O)Nc1ccc(-c2c[nH]c3ncnc(N[C@H](C)c4ccccc4)c23)cc1"
reported_property = "inhibition"
display_unit = "%"
readout_value = 14


A: OC[C@@H](Nc1ncnc2sc(-c3ccc(O)cc3)cc12)c1ccccc1
B: CN(C)CCn1cc(-c2cccc(O)c2)c2c(N)ncnc21
Hi there, can you help? I need to know whether A or B has lower measured inhibition. // respond with label for picked entry
B
(B: 7%, A: 12%)

###

Target Or System: Calcium/calmodulin-dependent protein kinase type 1G (Homo sapiens)
Test Details: Inhibition of recombinant human full length GST-tagged CAMK1G expressed in insect cells at 500 nM by Z-LYTE assay relative to control
Reported Property: inhibition (%)

Past entries and their recorded results:
[[record]]
compound_string = "CN(C)CCn1cc(-c2cccc(O)c2)c2c(N)ncnc21"
display_unit = "%"
readout_value = 1

[[record]]
compound_string = "CCC(=O)Nc1ccc(-c2c[nH]c3ncnc(N[C@H](C)c4ccccc4)c23)cc1"
display_unit = "%"
readout_value = 1


I: OC[C@@H](Nc1ncnc2sc(-c3ccc(O)cc3)cc12)c1ccccc1
II: OCc1ccc(-c2cc3c(N[C@H](CO)c4ccccc4)ncnc3[nH]2)cc1
Which numeric inhibition is bigger, that of I or that of II ? // respond with label for picked entry
I

###

Target Or System: Vascular endothelial growth factor receptor 2 (Homo sapiens)
Test Details: Inhibition of recombinant human His-tagged KDR cytoplasmic domain (789 to 1356 residues) expressed in baculovirus expression system at 500 nM by Z-LYTE assay relative to control
Reported Property: inhibition (%)

1: OCc1ccc(-c2cc3c(N[C@H](CO)c4ccccc4)ncnc3[nH]2)cc1
2: CCC(=O)Nc1ccc(-c2c[nH]c3ncnc(N[C@H](C)c4ccccc4)c23)cc1
3: CN(C)CCn1cc(-c2cccc(O)c2)c2c(N)ncnc21
Sort the list above on inhibition in ascending fashion. Lab note: final answer is the ordered label list.
2, 3, 1
